# credit: PubChem BioAssay

# Test system: XIP peptide (Xip251-270)
# experimentDescription: small-molecule binders of XIP peptide, primary screen, biochemical, small-molecule microarray, fluorescence 635/667 nm, 0.5 µg/mL protein (AID 1183)
# recordedConditions: small-molecule microarray binding, fluorescence 635 nm; higher = more signal
So basically: composite z-score at 0.1 or higher? That is true. Lower than 0.1? That is false.

compound=COC(=O)[C@@]1(CCS(=O)(=O)c2ccccc2)N=C(c2ccc(OCCCO)cc2)O[C@H]1c1ccccc1CN=[N+]=[N-] answerlabel=true
compound=C=CCNC(=O)[C@H]1[C@@H]2C(=O)O[C@@H](c3ccccc3)[C@@H](c3ccccc3)N2[C@@H](c2ccccc2OCCO)[C@]12C(=O)Nc1ccc(C#CCCO)cc12 answerlabel=true
compound="C=CCC(OC(C)=O)[C@@H]1[C@@H](N(Cc2ccc(-c3cccc(C(F)(F)F)c3)o2)C(=O)c2ccc(C)cc2)c2cc(OCCCO)ccc2N1C(=O)Cc1ccc2ccccc2c1 (stereo partly drawn)" answerlabel=false
compound=COCCOC(=O)N1C(=O)[C@@]2(c3ccccc31)[C@H](C(=O)N1CCc3cc(OC)c(OC)cc3C1)[C@H]1C(=O)O[C@H](c3ccccc3)[C@H](c3ccccc3)N1[C@@H]2c1ccc(OCCO)cc1 answerlabel=true
compound=O=C1C[C@@](C(=O)NCCN2CCOCC2)(c2ccc([N+](=O)[O-])cc2)[C@@H](c2ccc(CO)cc2)N1CC12CC3CC(CC(C3)C1)C2 answerlabel=true
compound=COC(=O)[C@]1(CCC(=O)OC(C)(C)C)N=C(c2ccc(OCCCO)cc2)O[C@@H]1c1ccccc1CN=[N+]=[N-] answerlabel=true
compound=COCCOC(=O)N1C(=O)[C@@]2(c3cc(C#CCC(C(=O)OC)C(=O)OC)ccc31)[C@H](c1ccccc1OCCO)N1[C@H](c3ccccc3)[C@H](c3ccccc3)OC(=O)[C@H]1[C@@H]2C(=O)N1CCN(c2ncccn2)CC1 answerlabel=true
compound=CN(C)CCCCCCNC(=O)[C@H]1C[C@H]2C(=O)N3CCC[C@H]3C(=O)N2[C@H]1c1ccc(O)cc1 answerlabel=true
compound=C=CC[C@@]1(C(=O)NCCN2CCOCC2)N=C(c2ccc(OCCCO)cc2)O[C@@H]1c1ccccc1N=[N+]=[N-] answerlabel=false
compound=CCOC(=O)C[C@H]1[C@H](OC(=O)c2ccc(-c3ccccc3)cc2)[C@@H](NC(=O)Cc2ccc(OC)cc2)c2cc(OCCCO)ccc2N1C(=O)c1ccccc1 answerlabel=false
compound="C=C(C)[C@@H]1CC=C(C(O)C2C=CC3C(=O)N(C)C(=O)C3N2Nc2ccccc2)CC1 (stereo partly drawn)" answerlabel=true
compound=C=C(CC1([C@@H](NP(=O)(c2ccccc2)c2ccccc2)[C@H]2C[C@@H]2CCCC)CC1)c1ccccc1 answerlabel=true
compound=C=CCNC(=O)[C@@H]1[C@H]2C(=O)O[C@H](c3ccccc3)[C@H](c3ccccc3)N2[C@H](c2ccc(O)cc2)[C@@]12C(=O)Nc1ccc(C#CCNC(N)=O)cc12 answerlabel=false

---

# experimentDescription: inhibitors of hydroxyurea-induced Chk1 phosphorylation, primary screen, imaging, HeLa, phospho-Chk1 antibody, percent positive cells (AID 1186)
# recordedConditions: hydroxyurea-induced phospho-Chk1 immunofluorescence imaging, higher = more signal
parameter: z-score

molecule="O=C1C2C=CC(C(O)c3cc(C(F)(F)F)cc(C(F)(F)F)c3)N(n3cnnc3)C2C(=O)N1Cc1ccccc1 (stereo not given)" parameter=z-score assayvalue=0.506
molecule=C=CC[C@@]12N=C(c3ccc(OCCCO)cc3)O[C@@H]1c1ccccc1N(C)C2=O parameter=z-score assayvalue=0.221
molecule=COc1ccccc1CN1C(=O)c2ccccc2[C@@]2(Cc3ccccc3N(CC(C)C)C2=O)[C@@H]1c1ccc(CO)cc1 parameter=z-score assayvalue=-0.132
molecule="CN1C(=O)C2C=CC(C(O)C3CC=CCC3)N(N(c3ccccc3)c3ccccc3)C2C1=O (stereo not given)" parameter=z-score assayvalue=0.451
molecule="CC(C)C(O)C1C=CC2C(=O)N(c3ccccc3)C(=O)C2N1Nc1ccc([N+](=O)[O-])cc1 (stereo not given)" parameter=z-score assayvalue=0.659
molecule="O=C1OCCC/C=C\\[C@H]2OC34C=CCN(Cc5ccccc5)C(=O)[C@H]3N(CCCO)C(=O)[C@@H]4C12 (stereo not given in full)" parameter=z-score assayvalue=-0.58
molecule=CC(C)NC(=O)[C@@]1(C)c2ccccc2C(=O)N(Cc2cc(C(F)(F)F)cc(C(F)(F)F)c2)[C@H]1c1ccc(CO)cc1 parameter=z-score assayvalue=-0.281
molecule="C[C@H]1C2[C@H](Cc3ccccc3)NC(=O)[C@]23C(=O)N[C@H](Cc2ccccc2)C(=O)N2CCC[C@H]2C(=O)NC/C=C\\C/C=C/C3[C@@H]2O[C@]12C (stereo not given in full)" parameter=z-score assayvalue=-0.291
molecule=COC(=O)[C@@]1(Cc2ccc(OC)cc2)[C@H]2c3cc(C(=O)N(C)C)n(Cc4ccc(S(C)(=O)=O)cc4)c3C[C@H]2CN1C(=O)c1ccccc1 parameter=z-score assayvalue=-0.907
molecule=CC[C@@H]1C=C(C(=O)O)[C@H](c2ccc(Br)cc2)N1S(=O)(=O)c1ccc(C)cc1 parameter=z-score assayvalue=-0.0321
molecule=C=C(COC)/C(=C/C[C@@H](OC(=O)c1ccncc1)c1ccc(CO)o1)c1cc(C(=O)OC)ccc1OC parameter=z-score assayvalue=-0.255
molecule=C[N+](C)(C)CCCCCCNC(=O)[C@@H]1C[C@@H]2C(=O)N[C@@H](Cc3ccccc3)C(=O)N2[C@@H]1c1cccc(OCCO)c1 parameter=z-score assayvalue=-0.362
molecule=CO[C@H]1O[C@H](CO)[C@@H](OC(=O)Nc2ccc(C(F)(F)F)cc2)[C@H](OC(=O)Nc2ccc3c(c2)OCO3)[C@@H]1OC(=O)Nc1ccc2c(c1)OCO2 parameter=z-score assayvalue=-0.328
molecule="COc1cc2c(cc1O)C(C1CC1)N(Cc1sc3ccccc3c1Cl)CC2 (stereo not given)" parameter=z-score assayvalue=-0.147
molecule="CC(C)C(CO)N1C(=O)[C@@H]2C3C(=O)OCCC/C=C\\[C@H]3OC23C=CCN(CCN2CCOCC2)C(=O)[C@@H]13 (stereo not given in full)" parameter=z-score assayvalue=0.248
molecule=CNS(=O)(=O)c1ccc(C)cc1 parameter=z-score assayvalue=-0.41
molecule="CCC(CC)C(O)C1C=CC2C(=O)NC(=O)C2N1Nc1ccc(Cl)cc1Cl (stereo not given)" parameter=z-score assayvalue=0.724
molecule=COCCOC(=O)N1C(=O)[C@@]2(c3cc(C#CCCO)ccc31)[C@H](C(N)=O)[C@H]1C(=O)O[C@H](c3ccccc3)[C@H](c3ccccc3)N1[C@@H]2c1ccc(O)cc1 parameter=z-score assayvalue=0.0513
molecule=COCCOC(=O)N1C(=O)[C@@]2(c3cc(C#CCC(C(=O)OC)C(=O)OC)ccc31)[C@H](c1ccccc1OCCO)N1[C@H](c3ccccc3)[C@H](c3ccccc3)OC(=O)[C@H]1[C@@H]2C(=O)N1CCN(c2ncccn2)CC1 parameter=z-score assayvalue=-0.225
molecule="CC(=O)n1cc(C(O)C2C=CC3C(=O)N(c4ccccc4)C(=O)C3N2Nc2ccc([N+](=O)[O-])cc2)c2ccccc21 (stereo not given)" parameter=z-score assayvalue=0.541
molecule="[N-]=[N+]=Nc1ccccc1[C@H]1OC(c2ccc(OCCCO)cc2)=N[C@@]1(CCS(=O)(=O)c1ccccc1)C(=O)NCC(O)CO (stereo not given in full)" parameter=z-score assayvalue=-0.0536
molecule=[N-]=[N+]=NCc1ccccc1[C@@H]1OC(c2ccc(OCCCO)cc2)=N[C@]1(Cc1ccccc1)C(N)=O parameter=z-score assayvalue=-0.395
molecule=COCCOC(=O)N1C(=O)[C@@]2(c3cc(C#CC4(O)CCCCCC4)ccc31)[C@H](c1ccc(OCCO)cc1)N1[C@H](c3ccccc3)[C@H](c3ccccc3)OC(=O)[C@H]1[C@@H]2C(=O)N1CCN(c2ncccn2)CC1 parameter=z-score assayvalue=-0.0615
molecule="C=C(C)[C@@H]1CC=C(C(O)C2C=CC3C(=O)N(C)C(=O)C3N2Nc2ccccc2)CC1 (stereo not given in full)" parameter=z-score assayvalue=-0.63
molecule=COc1ccc(CCNC(=O)[C@@]2(C)c3ccccc3C(=O)N(C(C)C)[C@H]2c2ccc(CO)cc2)cc1 parameter=z-score assayvalue=0.0394
molecule="CC(C)C(O)C1C=CC2C(=O)NC(=O)C2N1Nc1ccc(Cl)cc1Cl (stereo not given)" parameter=z-score assayvalue=0.998
molecule=C=C[C@@H](COC(=O)OC(C)(C)C)N(Cc1ccc(OC)cc1)S(=O)(=O)c1ccc(Br)cc1 parameter=z-score assayvalue=0.344
molecule=COC(=O)[C@@]1(Cc2ccc(F)cc2)[C@H]2c3cc(C(=O)N4CCCC4)n(CCCNc4ncc(C(F)(F)F)cc4Cl)c3C[C@H]2CN1C(=O)c1ccccc1 parameter=z-score assayvalue=0.919
molecule=CCCC[C@@H]1C[C@H]1[C@@H](NC(=O)c1ccccc1)c1ccc(C(=O)OC)cc1 parameter=z-score assayvalue=0.665
molecule=COc1ccc(CCNC(=O)[C@@H]2c3ccccc3C(=O)N(Cc3ccccc3Cl)[C@H]2c2ccc(CO)cc2)cc1 parameter=z-score assayvalue=0.139
